system: vancomycin-resistant enterococci; assay: broth micro-dilution, mean geometric MIC; assay type: cell-based, Enterococcus faecium and Enterococcus faecalis; settings: enterococci, 24-hour incubation
reported-property: mean geometric MIC, Vancomycin Resistant Strains (µg/mL)
Entry rule: numbers only, all in µg/mL.

Q: Entry under review: CNC(CC(C)C)C(=O)NC1C(=O)NC(CC(N)=O)C(=O)NC2C(=O)NC3C(=O)NC(C(=O)NC(C(=O)O)c4cc(O)cc(O)c4-c4cc3ccc4O)C(OC3CC(C)(N)C(O)C(C)O3)c3ccc(c(Cl)c3)Oc3cc2cc(c3OC2OC(CO)C(O)C(O)C2OC2CC(C)(NCc3ccc4ccccc4c3)C(O)C(C)O2)Oc2ccc(cc2Cl)C1O (stereo not drawn) [Compound 1] . Reported mean geometric MIC, Vancomycin Resistant Strains?
A: 0.25

Q: Same again, this time with CNC(CC(C)C)C(=O)NC1C(=O)NC(CC(N)=O)C(=O)NC2C(=O)NC3C(=O)NC(C(=O)NC(C(=O)O)c4cc(O)cc(O)c4-c4cc3ccc4O)C(OC3CC(C)(N)C(O)C(C)O3)c3ccc(c(Cl)c3)Oc3cc2cc(c3OC2OC(CO)C(O)C(O)C2OC2CC(C)(NCc3ccc(OC(=O)c4ccccc4)cc3)C(O)C(C)O2)Oc2ccc(cc2Cl)C1O (stereo not drawn) [Compound 150]
A: 1.7

Q: Same again, this time with CNC(CC(C)C)C(=O)NC1C(=O)NC(CC(N)=O)C(=O)NC2C(=O)NC3C(=O)NC(C(=O)NC(C(=O)O)c4cc(O)cc(O)c4-c4cc3ccc4O)C(OC3CC(C)(NCc4ccc(C(F)(F)F)cc4)C(O)C(C)O3)c3ccc(c(Cl)c3)Oc3cc2cc(c3OC2OC(CO)C(O)C(O)C2OC2CC(C)(NCc3ccc(C(F)(F)F)cc3)C(O)C(C)O2)Oc2ccc(cc2Cl)C1O (stereo not drawn) [Compound 272]
A: 4.75

###

test system: vancomycin-resistant enterococci; assay: broth micro-dilution, mean geometric MIC; type: cell-based, Enterococcus faecium and Enterococcus faecalis; settings: enterococci, 24-hour incubation
reported-property: mean geometric MIC, Vancomycin Resistant Strains (µg/mL)
Entry rule: numbers only, all in µg/mL.

Q: Entry under review: CNC(CC(C)C)C(=O)NC1C(=O)NC(CC(N)=O)C(=O)NC2C(=O)NC3C(=O)NC(C(=O)NC(C(=O)O)c4cc(O)cc(O)c4-c4cc3ccc4O)C(OC3CC(C)(N)C(O)C(C)O3)c3ccc(cc3)Oc3cc2cc(c3OC2OC(CO)C(O)C(O)C2OC2CC(C)(NCc3ccc(-c4ccccc4)cc3)C(O)C(C)O2)Oc2ccc(cc2)C1O (centres unmarked) [Compound 183] . Reported mean geometric MIC, Vancomycin Resistant Strains?
A: 23

Q: Same again, this time with CNC(CC(C)C)C(=O)NC1C(=O)NC(CC(N)=O)C(=O)NC2C(=O)NC3C(=O)NC(C(=O)NC(C(=O)O)c4cc(O)cc(O)c4-c4cc3ccc4O)C(OC3CC(C)(N)C(O)C(C)O3)c3ccc(c(Cl)c3)Oc3cc2cc(c3OC2OC(CO)C(O)C(O)C2OC2CC(C)(NCc3ccc(Nc4ccccc4)cc3)C(O)C(C)O2)Oc2ccc(cc2Cl)C1O (centres unmarked) [Compound 160]
A: 9.5

###

system: vancomycin-susceptible enterococci; assay: broth micro-dilution, mean geometric MIC; format: cell-based, Enterococcus faecium and Enterococcus faecalis; conditions: enterococci, 24-hour incubation
reported-property: mean geometric MIC, Vancomycin Sensitive Strains (µg/mL)
Entry rule: numbers only, all in µg/mL.

Q: Entry under review: CNC(CC(C)C)C(=O)NC1C(=O)NC(CC(N)=O)C(=O)NC2C(=O)NC3C(=O)NC(C(=O)NC(C(=O)O)c4cc(O)cc(O)c4-c4cc3ccc4O)C(OC3CC(C)(N)C(O)C(C)O3)c3ccc(c(Cl)c3)Oc3cc2cc(c3OC2OC(CO)C(O)C(O)C2OC2CC(C)(NCc3ccc4ccccc4n3)C(O)C(C)O2)Oc2ccc(cc2Cl)C1O (stereo not drawn) . Reported mean geometric MIC, Vancomycin Sensitive Strains?
A: 0.071

Q: Same again, this time with CNC(CC(C)C)C(=O)NC1C(=O)NC(CC(N)=O)C(=O)NC2C(=O)NC3C(=O)NC(C(=O)NC(C(=O)O)c4cc(O)cc(O)c4-c4cc3ccc4O)C(OC3CC(C)(N)C(O)C(C)O3)c3ccc(c(Cl)c3)Oc3cc2cc(c3OC2OC(CO)C(O)C(O)C2OC2CC(C)(NCCCCCCCCOc3ccccc3)C(O)C(C)O2)Oc2ccc(cc2Cl)C1O (stereo not drawn)
A: 0.042

Q: Same again, this time with CNC(CC(C)C)C(=O)NC1C(=O)NC(CC(N)=O)C(=O)NC2C(=O)NC3C(=O)NC(C(=O)NC(C(=O)O)c4cc(O)cc(O)c4-c4cc3ccc4O)C(OC3CC(C)(N)C(O)C(C)O3)c3ccc(c(Cl)c3)Oc3cc2cc(c3OC2OC(CO)C(O)C(O)C2OC2CC(C)(NCc3ccc(OC(F)(F)C(F)F)cc3)C(O)C(C)O2)Oc2ccc(cc2Cl)C1O (stereo not drawn)
A: 0.063

// provenance: patent US5840684A
